- assayDetails: Solubility in water
- Format: physicochemical
- reportedConditions: water
readoutType: solubility

Quick one: solubility of CN(CC(O)CO)C(=O)c1c(I)c(C(=O)N(C)CC(O)CO)c(I)c(N(C)C(=O)COCC(=O)N(C)c2c(I)c(C(=O)N(C)CC(O)CO)c(I)c(C(=O)N(C)CC(O)CO)c2I)c1I (stereo not drawn) ?
> 600 mg/mL

Proceed to O=C(CCCCC(=O)Nc1c(I)c(C(=O)NC(CO)CO)c(I)c(C(=O)NC(CO)CO)c1I)Nc1c(I)c(C(=O)NC(CO)CO)c(I)c(C(=O)NC(CO)CO)c1I
< 1 mg/mL

Proceed to CN(CC(O)CO)C(=O)c1c(I)c(NC(=O)CCCCC(=O)Nc2c(I)c(C(=O)N(C)CC(O)CO)c(I)c(C(=O)N(C)CC(O)CO)c2I)c(I)c(C(=O)N(C)CC(O)CO)c1I (stereo not drawn)
130 mg/mL

---

- assayDetails: Solubility in water
- Assay type: physicochemical
- reportedConditions: water; room temperature
readoutType: solubility

Quick one: solubility of CN(CC(O)CO)C(=O)c1c(I)c(NC(=O)C(=O)Nc2c(I)c(C(=O)N(C)CC(O)CO)c(I)c(C(=O)N(C)CC(O)CO)c2I)c(I)c(C(=O)N(C)CC(O)CO)c1I (stereo not shown) ?
> 600 mg/mL

---

- Test system: erythrocytes
- assayDetails: Effect of the contrast media on erythrocyte morphology
- reportedConditions: 43 mg. Iodine/ml. Blood; score 0 (intact) to 5 (highest damage)
readoutType: Effect on Erythrocyte Morphology, Damage Index
I only need the number, thanks.

Observed Effect on Erythrocyte Morphology, Damage Index on erythrocytes for CC(=O)Nc1c(I)c(NC(C)=O)c(I)c(C(=O)O)c1I [Meglumine Amidotrizoate] , please.
2.57

Proceed to CN(CC(O)CO)C(=O)c1c(I)c(NC(=O)CCCCC(=O)Nc2c(I)c(C(=O)N(C)CC(O)CO)c(I)c(C(=O)N(C)CC(O)CO)c2I)c(I)c(C(=O)N(C)CC(O)CO)c1I (stereo not drawn)
0.11

Proceed to CN(CC(O)CO)C(=O)c1c(I)c(C(=O)N(C)CC(O)CO)c(I)c(N(C)C(=O)COCC(=O)N(C)c2c(I)c(C(=O)N(C)CC(O)CO)c(I)c(C(=O)N(C)CC(O)CO)c2I)c1I (stereo not drawn)
0.09

Proceed to CN(CC(O)CO)C(=O)c1c(I)c(NC(=O)C(=O)Nc2c(I)c(C(=O)N(C)CC(O)CO)c(I)c(C(=O)N(C)CC(O)CO)c2I)c(I)c(C(=O)N(C)CC(O)CO)c1I (stereo not drawn)
0.33

Proceed to CNC(=O)c1c(I)c(NC(=O)CCCCC(=O)Nc2c(I)c(C(=O)O)c(I)c(C(=O)NC)c2I)c(I)c(C(=O)O)c1I [Meglumine Iocarmate]
1.37

Proceed to CN(CC(O)CO)C(=O)c1c(I)c(NC(=O)COCCOCC(=O)Nc2c(I)c(C(=O)N(C)CC(O)CO)c(I)c(C(=O)N(C)CC(O)CO)c2I)c(I)c(C(=O)N(C)CC(O)CO)c1I (stereo not drawn)
0.13

---

- assayDetails: Protein binding, human plasma (ultrafiltration method)
- Type: in vitro ADME
- reportedConditions: human, plasma
readoutType: fraction unbound
I only need the number, thanks.

Quick one: fraction unbound of CC(=O)Nc1c(I)c(C(=O)N[C@H]2C(O)O[C@H](CO)[C@@H](O)[C@@H]2O)c(I)c(N(C)C(C)=O)c1I (some centres unmarked) [Metrizamide] ?
0.938

Proceed to CNC(=O)c1c(I)c(NC(C)=O)c(I)c(C(=O)O)c1I [Meglumine Iothalamate]
0.948

---

- assayDetails: Osmotic pressure and osmolality of solutions of identical iodine concentration (300 mg. Iodine/ml.)
- Type: physicochemical
- reportedConditions: at 37° C.
Kindly state Osmotic Pressure for each of the entries shown.
Write down the numeric answer in at. and omit the unit.

Quick one: Osmotic Pressure of CC(=O)Nc1c(I)c(NC(C)=O)c(I)c(C(=O)O)c1I [Meglumine Amidotrizoate] ?
38.6

Proceed to CNC(=O)c1c(I)c(NC(C)=O)c(I)c(C(=O)O)c1I [Meglumine Iothalamate]
41.9

Proceed to CNC(=O)c1c(I)c(NC(=O)CCCCC(=O)Nc2c(I)c(C(=O)O)c(I)c(C(=O)NC)c2I)c(I)c(C(=O)O)c1I [Meglumine Iocarmate]
32.0

Proceed to CN(CC(O)CO)C(=O)c1c(I)c(NC(=O)C(=O)Nc2c(I)c(C(=O)N(C)CC(O)CO)c(I)c(C(=O)N(C)CC(O)CO)c2I)c(I)c(C(=O)N(C)CC(O)CO)c1I (stereo not shown) [Example 1]
4.5

Proceed to CN(CC(O)CO)C(=O)c1c(I)c(NC(=O)COCCOCC(=O)Nc2c(I)c(C(=O)N(C)CC(O)CO)c(I)c(C(=O)N(C)CC(O)CO)c2I)c(I)c(C(=O)N(C)CC(O)CO)c1I (stereo not shown) [Example 12]
5.5

Proceed to CC(=O)Nc1c(I)c(C(=O)N[C@H]2C(O)O[C@H](CO)[C@@H](O)[C@@H]2O)c(I)c(N(C)C(C)=O)c1I (stereo partly shown) [Metrizamide]
12.3

Proceed to CN(CC(O)CO)C(=O)c1c(I)c(C(=O)N(C)CC(O)CO)c(I)c(N(C)C(=O)CC(=O)N(C)c2c(I)c(C(=O)N(C)CC(O)CO)c(I)c(C(=O)N(C)CC(O)CO)c2I)c1I (stereo not shown) [Example 9]
5.0
